# ASSAY TARGET: T1, human CD33 extracellular domain with 6xHis-tag (human, UniProt P20138 18-259)
# T1 construct: Bought (R&D Systems, Acro Biosystems); also called huCD33-His; huCD33(ECD)-His
# T1 sequence (P20138 other isoform, or with tags, fused parts or gaps): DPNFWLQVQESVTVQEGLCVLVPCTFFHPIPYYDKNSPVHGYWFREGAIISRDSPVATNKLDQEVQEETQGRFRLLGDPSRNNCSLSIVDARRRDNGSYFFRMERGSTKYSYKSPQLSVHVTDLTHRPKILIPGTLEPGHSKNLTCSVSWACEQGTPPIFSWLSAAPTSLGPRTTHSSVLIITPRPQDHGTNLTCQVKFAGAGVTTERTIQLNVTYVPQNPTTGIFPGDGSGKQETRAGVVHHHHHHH
# EXPERIMENT SUMMARY: BLI, huCD33-His on anti-penta-His sensor, no competitor
READOUT KIND: BLI total binding capacity (Reference Biosensor)
One number for each entry.

Solved entries (count: 2):
BINDER	VALUE REPORTED
TDI-Y-007 (antibody, V domains shown, also called 4B2 (recombinant, human IgG1 constant region)) VH: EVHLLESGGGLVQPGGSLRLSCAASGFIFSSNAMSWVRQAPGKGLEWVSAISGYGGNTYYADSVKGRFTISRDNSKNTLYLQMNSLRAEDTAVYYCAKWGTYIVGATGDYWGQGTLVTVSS VL: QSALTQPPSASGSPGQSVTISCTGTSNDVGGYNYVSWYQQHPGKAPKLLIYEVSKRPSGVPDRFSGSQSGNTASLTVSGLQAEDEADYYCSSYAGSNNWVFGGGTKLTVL	0.299
H195 (lintuzumab) (antibody, V domains shown) VH: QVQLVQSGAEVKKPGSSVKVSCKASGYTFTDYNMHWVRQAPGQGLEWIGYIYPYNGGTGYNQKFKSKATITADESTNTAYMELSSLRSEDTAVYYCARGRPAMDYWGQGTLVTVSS VL: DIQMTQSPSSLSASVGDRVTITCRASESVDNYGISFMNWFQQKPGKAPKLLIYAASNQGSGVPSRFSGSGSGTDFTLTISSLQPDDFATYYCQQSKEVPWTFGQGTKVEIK	0.743

// batch mode: one BLI total binding capacity (Reference Biosensor) value per listed entry
1. 1J19 (recombinant, human IgG1 constant region) (antibody, V domains shown) VH: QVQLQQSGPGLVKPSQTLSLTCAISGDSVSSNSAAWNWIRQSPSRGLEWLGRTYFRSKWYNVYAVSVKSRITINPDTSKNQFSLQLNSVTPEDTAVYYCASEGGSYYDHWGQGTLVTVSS VL: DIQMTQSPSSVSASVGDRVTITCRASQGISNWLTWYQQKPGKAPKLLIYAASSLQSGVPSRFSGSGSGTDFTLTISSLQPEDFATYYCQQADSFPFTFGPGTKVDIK
2. TDI-Y-006 (antibody, V domains shown, also called 3P14 (recombinant, human IgG1 constant region)) VH: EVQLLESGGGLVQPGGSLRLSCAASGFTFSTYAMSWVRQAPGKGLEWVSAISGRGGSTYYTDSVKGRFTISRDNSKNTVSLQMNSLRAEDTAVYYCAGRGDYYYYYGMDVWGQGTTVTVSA VL: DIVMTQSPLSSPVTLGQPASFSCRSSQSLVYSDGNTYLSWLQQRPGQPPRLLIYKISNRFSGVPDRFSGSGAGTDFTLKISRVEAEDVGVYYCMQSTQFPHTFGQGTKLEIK

[A]
[0.432, 0.86]
